System: Trypsin
Construct: IC50; other: Trypsin; Ki
Test: Trypsin inhibition, chromogenic substrate (Method C)
Assay type: biochemical
Conditions: Trypsin
pIC50: −log10 of the molar value.
valueKind: pIC50

- compound: "COCCC[C@H](NC(=O)[C@@H]1CCCN1C(=O)[C@@H](Cc1ccc(F)cc1)NC(=O)OCc1ccccc1)B(O)O [TRI 50f, Cbz-4-F-Phe-Pro-boroMpg-OH]"
  targetEntity: "Trypsin"
  valueKind: "pIC50"
  result: "< 5.00"

====

Biological target: thrombin (Homo sapiens, UniProt P00734)
pIC50: −log10 of the molar value.

- molecule: "COCCC[C@H](NC(=O)[C@@H]1CCCN1C(=O)[C@@H](Cc1ccc(F)cc1)NC(=O)OCc1ccccc1)B(O)O [TRI 50f, Cbz-4-F-Phe-Pro-boroMpg-OH]"
  pIC50: "> 7.00"

====

Molecular target: Plasmin (Homo sapiens, UniProt P00747)
Sequence (P00747 581-810 limits assumed, species assumed): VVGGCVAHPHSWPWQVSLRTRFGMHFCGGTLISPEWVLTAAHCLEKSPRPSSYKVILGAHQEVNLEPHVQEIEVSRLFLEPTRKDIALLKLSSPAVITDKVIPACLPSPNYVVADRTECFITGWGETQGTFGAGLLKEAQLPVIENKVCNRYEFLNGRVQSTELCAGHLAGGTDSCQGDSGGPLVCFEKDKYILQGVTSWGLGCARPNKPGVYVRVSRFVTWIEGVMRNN
Sequence (P00747 97-580 partner limits assumed, species assumed): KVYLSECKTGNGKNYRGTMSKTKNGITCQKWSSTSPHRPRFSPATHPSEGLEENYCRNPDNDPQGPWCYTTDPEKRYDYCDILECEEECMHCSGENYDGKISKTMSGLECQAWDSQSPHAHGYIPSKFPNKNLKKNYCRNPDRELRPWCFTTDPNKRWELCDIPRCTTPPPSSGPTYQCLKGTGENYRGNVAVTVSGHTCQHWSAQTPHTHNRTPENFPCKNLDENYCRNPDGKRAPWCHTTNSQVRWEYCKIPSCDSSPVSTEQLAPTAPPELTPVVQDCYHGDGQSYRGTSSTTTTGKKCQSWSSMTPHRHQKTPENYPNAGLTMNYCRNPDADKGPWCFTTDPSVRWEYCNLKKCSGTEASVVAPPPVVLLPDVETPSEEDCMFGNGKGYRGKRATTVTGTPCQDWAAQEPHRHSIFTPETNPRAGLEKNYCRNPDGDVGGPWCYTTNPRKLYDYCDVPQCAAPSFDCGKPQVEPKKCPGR
valueKind: Ki

- compound: "COCCC[C@H](NC(=O)[C@@H]1CCCN1C(=O)[C@@H](Cc1ccc(F)cc1)NC(=O)OCc1ccccc1)B(O)O [TRI 50f, Cbz-4-F-Phe-Pro-boroMpg-OH]"
  targetEntity: "Plasmin (Homo sapiens, UniProt P00747)"
  valueKind: "Ki"
  result: "> 100 µM"

====

Biological target: thrombin (Homo sapiens)
pKi: −log10 of the molar value.

- compound: "COCCC[C@H](NC(=O)[C@@H]1CCCN1C(=O)[C@@H](Cc1ccc(F)cc1)NC(=O)OCc1ccccc1)B(O)O [TRI 50f, Cbz-4-F-Phe-Pro-boroMpg-OH]"
  pKi: "> 7.12"
